Cited source for all entries: patent US20050032873A1

# TARGET_DESC: cloned human 5-HT1A receptors (Homo sapiens)
# Construct: expressed in transfected cells
# Sequence (P08908 whole entry): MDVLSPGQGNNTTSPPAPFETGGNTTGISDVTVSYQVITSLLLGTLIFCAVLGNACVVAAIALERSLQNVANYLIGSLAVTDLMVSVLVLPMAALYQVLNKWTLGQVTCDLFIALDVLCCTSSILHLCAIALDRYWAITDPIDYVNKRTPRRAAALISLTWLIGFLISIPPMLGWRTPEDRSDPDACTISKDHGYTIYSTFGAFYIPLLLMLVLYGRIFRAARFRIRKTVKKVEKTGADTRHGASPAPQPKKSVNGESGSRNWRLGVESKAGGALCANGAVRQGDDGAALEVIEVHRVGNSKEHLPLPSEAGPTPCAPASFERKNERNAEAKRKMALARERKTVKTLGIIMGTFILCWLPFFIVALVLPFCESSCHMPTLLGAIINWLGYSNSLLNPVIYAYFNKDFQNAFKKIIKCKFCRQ
# ASSAY_COMMENT: 35S-GTPγS binding assay, 5-HT1A function
# Type: biochemical
# CONDITION: maximum inhibitory effect, in brackets after IC50
REPORTED_ENDPOINT: 5-HT1A Function GTPγS (Imax) (%)
// return numeric value only (unit: %, not printed)

MOLECULE: CC(CCc1c[nH]c2c(F)cc(F)cc12)N(CC1CC1)C1COc2c(F)ccc(C(N)=O)c2C1 (single isomer, unassigned) [Compound 154a]
TARGET_DESC: cloned human 5-HT1A receptors (Homo sapiens)
REPORTED_ENDPOINT: 5-HT1A Function GTPγS (Imax)
READOUT_NUMBER: 100

MOLECULE: CCCN(C(C)CCc1c[nH]c2ccc(F)cc12)C1COc2c(F)ccc(C(N)=O)c2C1 (single isomer, unassigned) [Compound 12c]
TARGET_DESC: cloned human 5-HT1A receptors (Homo sapiens)
REPORTED_ENDPOINT: 5-HT1A Function GTPγS (Imax)
READOUT_NUMBER: 100

MOLECULE: CCCN(CC1CCc2[nH]c3ccc(F)cc3c2C1)[C@H]1COc2c(F)ccc(C(N)=O)c2C1 (single isomer, unassigned; (-)) [Compound 177a]
TARGET_DESC: cloned human 5-HT1A receptors (Homo sapiens)
REPORTED_ENDPOINT: 5-HT1A Function GTPγS (Imax)
READOUT_NUMBER: 100

MOLECULE: CC(CCc1c[nH]c2c(F)cc(F)cc12)N(CC1CC1)C1COc2c(F)ccc(C(N)=O)c2C1 (single isomer, unassigned) [Compound 154d]
TARGET_DESC: cloned human 5-HT1A receptors (Homo sapiens)
REPORTED_ENDPOINT: 5-HT1A Function GTPγS (Imax)
READOUT_NUMBER: 71

MOLECULE: NC(=O)c1ccc(F)c2c1CC(N(CCCc1c[nH]c3c(F)cc(F)cc13)C1CCC1)CO2 (single isomer, unassigned; (+)) [Compound 9b]
TARGET_DESC: cloned human 5-HT1A receptors (Homo sapiens)
REPORTED_ENDPOINT: 5-HT1A Function GTPγS (Imax)
READOUT_NUMBER: 74

Now look at this one.
Query string: Reported 5-HT1A Function GTPγS (Imax), molecule COC(=O)c1ccc(F)c2c1CC(N(CCCc1c[nH]c3ccc(F)cc13)C1CCC1)CO2 (stereo not drawn) : ____
Result string: 62
